Provenance of the data: ChEMBL document CHEMBL1133668

test system: MRC5; test: Tested for Antiherpetic activity against HSV-1 from Tomioka strain in MRC-5 cell lines.; type: functional, cell-based; details: Homo sapiens
Measured endpoint: IC50 (µg/mL)
Report the figure in µg/mL without appending any unit label.

Observe how each entry below is paired with its result.
Compound	System	Measured endpoint	Test result
Nc1nc2c(ncn2COCCO)c(=O)[nH]1	MRC5	IC50	0.29
O=c1[nH]c(=O)n([C@@H]2O[C@H](CO)[C@@H](O)[C@H]2O)cc1/C=C/Br	MRC5	IC50	0.14
Nc1nc(O)c2ncn(CCC(CO)CO)c2n1	MRC5	IC50	0.54
O=c1[nH]c(=O)n(CC2(CO)CC2CO)cc1/C=C/Br (stereo not given)	MRC5	IC50	0.77

In the following, a different compound is considered.
input: Record request: IC50 value, item "Nc1nc(O)c2ncn(C[C@]3(CO)C[C@H]3CO)c2n1"
output: 0.0093
